These entries and their values trace back to patent US20240391875A1.

I'd be grateful if you could share measured pIC50 for these entries.
target: POLRMT (Homo sapiens, UniProt O00411); test: homogeneous TR-FRET assay of mitochondrial transcription (inhibition of POLRMT); format: biochemical; conditions: isoquinolinone compounds (Table 1)
Sequence (O00411 42-1230): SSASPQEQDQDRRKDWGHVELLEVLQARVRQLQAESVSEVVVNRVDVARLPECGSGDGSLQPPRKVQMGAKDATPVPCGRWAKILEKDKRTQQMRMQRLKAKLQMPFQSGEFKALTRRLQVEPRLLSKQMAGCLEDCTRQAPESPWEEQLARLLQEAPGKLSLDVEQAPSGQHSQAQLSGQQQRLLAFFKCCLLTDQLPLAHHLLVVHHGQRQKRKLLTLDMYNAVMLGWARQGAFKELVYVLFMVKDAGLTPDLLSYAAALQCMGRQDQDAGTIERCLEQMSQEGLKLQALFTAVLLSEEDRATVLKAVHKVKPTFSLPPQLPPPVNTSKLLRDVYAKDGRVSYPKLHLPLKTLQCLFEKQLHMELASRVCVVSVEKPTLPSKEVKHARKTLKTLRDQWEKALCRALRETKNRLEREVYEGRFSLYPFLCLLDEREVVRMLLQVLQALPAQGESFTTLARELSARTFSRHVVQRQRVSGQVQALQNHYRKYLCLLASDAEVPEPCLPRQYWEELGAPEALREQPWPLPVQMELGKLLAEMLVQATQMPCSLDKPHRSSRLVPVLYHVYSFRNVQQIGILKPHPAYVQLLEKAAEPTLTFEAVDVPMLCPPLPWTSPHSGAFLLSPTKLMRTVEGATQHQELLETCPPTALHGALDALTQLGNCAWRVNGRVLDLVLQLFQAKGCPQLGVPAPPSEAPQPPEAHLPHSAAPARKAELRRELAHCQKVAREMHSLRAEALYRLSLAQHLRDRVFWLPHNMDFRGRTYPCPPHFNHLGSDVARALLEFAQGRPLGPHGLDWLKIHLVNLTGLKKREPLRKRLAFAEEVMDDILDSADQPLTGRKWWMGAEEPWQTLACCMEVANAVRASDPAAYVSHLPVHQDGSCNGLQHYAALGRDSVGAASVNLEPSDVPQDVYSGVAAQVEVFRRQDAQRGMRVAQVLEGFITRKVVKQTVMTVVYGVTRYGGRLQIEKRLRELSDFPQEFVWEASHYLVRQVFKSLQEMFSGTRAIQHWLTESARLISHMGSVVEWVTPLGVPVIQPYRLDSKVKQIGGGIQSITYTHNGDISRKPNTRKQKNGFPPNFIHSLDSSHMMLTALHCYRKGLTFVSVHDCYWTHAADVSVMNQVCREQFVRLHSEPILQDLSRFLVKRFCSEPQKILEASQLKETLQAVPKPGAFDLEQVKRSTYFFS
# pIC50 = -log10(concentration in molar units)

# input compound: Cc1ccccc1-c1c[nH]c(=O)c2cc(O[C@H](C)C(=O)N3CCC(C(=O)O)CC3)ccc12 [Example 24] ; wanted: its pIC50 7.30

Form field: reported pIC50 of Cc1sccc1-c1c[nH]c(=O)c2cc(OCC(N)=O)ccc12 [Example 134] 4.68

Returns the measured pIC50 for the input compound. Input: CCc1ccccc1-c1c[nH]c(=O)c2cc(OCC(N)=O)ccc12 [Example 138] 4.92

I'd like to know its pIC50. The compound in question is Cc1ccccc1-c1c[nH]c(=O)c2cc(C(=O)N(C)C)ccc12 [Example 23] 4.12

----------
target: POLRMT (Homo sapiens, UniProt O00411); experiment: homogeneous TR-FRET assay of mitochondrial transcription (inhibition of POLRMT); format: biochemical; details: isoquinolinone compounds (Table 1)
Outcome Measure: pIC50
pIC50 here is simply -log10 of the concentration when that concentration is written in mol/L.

Request the reported pIC50 associated with COCc1ccc2c(-c3ccccc3C)c[nH]c(=O)c2c1 [Example 44] 5.70

Suppose we examine the molecule C[C@@H](Oc1ccc2c(-c3ccc(F)cc3Cl)c[nH]c(=O)c2c1)C(=O)N1CCO[C@@H](C(N)=O)C1 [Example 129] ; what pIC50 value has been reported? 6.00

Can you look up the measured pIC50 of C[C@@H](Oc1ccc2c(-c3ccc(F)cc3Cl)c[nH]c(=O)c2c1)C(=O)N1CCC[C@H](C(=O)O)C1 [Example 62] for me? 7.22

# query: pIC50 of entry C[C@@H](Oc1ccc2c(-c3ccc(F)cc3Cl)c[nH]c(=O)c2c1)C(=O)N1CCO[C@H](C(=O)O)C1 [Example 121] 6.70

Which pIC50 is listed for Cc1ccccc1-c1c[nH]c(=O)c2cc(OC(C)C(N)=O)ccc12 (single isomer, unassigned) [Example 73] ? 6.40

// query pIC50 value for entry Cc1cc(F)cc(C)c1-c1c[nH]c(=O)c2cc(OCC(N)=O)ccc12 [Example 109] 5.15

Looking for the measured pIC50 of COC[C@H]1COCCN1C(=O)[C@@H](C)Oc1ccc2c(-c3ccc(F)cc3Cl)c[nH]c(=O)c2c1 [Example 103] , can you help? 6.15

Requested field: pIC50. Item: C[C@@H](Oc1ccc2c(-c3ccc(F)cc3Cl)c[nH]c(=O)c2c1)C(=O)N1CCOC[C@H]1CO [Example 113] 6.22

GET /values?readout=pIC50&item= Cc1ccccc1-c1c[nH]c(=O)c2cc(O[C@H](C)C(=O)N3CCOCC3)ccc12 [Example 78] 7.52

----------
Would you kindly list pIC50 for each of these compounds?
molecular target: POLRMT (Homo sapiens, UniProt O00411); experiment: homogeneous TR-FRET assay of mitochondrial transcription (inhibition of POLRMT); format: biochemical; conditions: isoquinolinone compounds (Table 1)
pIC50: −log10 of the molar value.

Quick check: pIC50 on POLRMT (Homo sapiens, UniProt O00411), item CC(=O)N(C)Cc1ccc2c(-c3ccccc3C)c[nH]c(=O)c2c1 [Example 45] ? < 4.00

Identify the measured pIC50 of Cc1ccccc1-c1c[nH]c(=O)c2cc(CN)ccc12 [Example 38] for POLRMT (Homo sapiens, UniProt O00411). < 4.00

Missing value: pIC50, POLRMT (Homo sapiens, UniProt O00411), entry CC(=O)N1CCC(C(=O)Nc2ccc3c(-c4ccccc4C)c[nH]c(=O)c3c2)CC1 [Example 33] . Fill in? < 4.00
